Origin of measurements: ChEMBL document CHEMBL3862033

# system.under.test: 5-hydroxytryptamine receptor 2C (Homo sapiens, UniProt P28335)
# Sequence (P28335 whole entry): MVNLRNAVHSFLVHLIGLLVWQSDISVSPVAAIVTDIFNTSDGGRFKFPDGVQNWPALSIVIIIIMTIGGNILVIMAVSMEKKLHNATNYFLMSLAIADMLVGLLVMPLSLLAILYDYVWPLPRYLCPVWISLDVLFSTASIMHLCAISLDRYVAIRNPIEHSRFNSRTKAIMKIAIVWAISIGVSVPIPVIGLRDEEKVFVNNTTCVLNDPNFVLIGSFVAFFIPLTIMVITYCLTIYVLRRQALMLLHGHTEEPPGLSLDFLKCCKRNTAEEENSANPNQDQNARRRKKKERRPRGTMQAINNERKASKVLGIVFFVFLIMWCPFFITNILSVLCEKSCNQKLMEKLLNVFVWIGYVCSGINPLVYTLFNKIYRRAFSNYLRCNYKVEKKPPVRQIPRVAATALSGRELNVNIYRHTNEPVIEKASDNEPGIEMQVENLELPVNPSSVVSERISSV
# protocol.text: Antagonist activity at human 5-HT2CR expressed in Flp-In HEK cells assessed as inhibition of serotonin induced calcium mobilization preincubated for 5 to 10 mins followed 5-Ht addition by Fluo-4 dye based FLIPR assay
# Type: functional, cell-based, HEK293
endpoint.name: pKi
Convention used: pKi is expressed as -log10 of the molar concentration.

Data request, read-out pKi, for `CCOC(=O)[C@@]12C[C@@H]1[C@@H](n1cnc3c(NC(C4CC4)C4CC4)nc(Cl)nc31)[C@H](O)[C@@H]2O`
8.41

Now this one: `COC(=O)[C@@]12C[C@@H]1[C@@H](n1cnc3c(NC(C4CC4)C4CC4)nc(Cl)nc31)[C@H](O)[C@@H]2O`
8.39

Now the compound `CNC(=O)[C@@]12C[C@@H]1[C@@H](n1cnc3c(NC(C4CC4)C4CC4)nc(Cl)nc31)[C@H](O)[C@@H]2O`
6.12

How about this compound: `OC[C@@]12C[C@@H]1[C@@H](n1cnc3c(NC(C4CC4)C4CC4)nc(Cl)nc31)[C@H](O)[C@@H]2O`
6.47

====

// reported inhibition for each item listed
# system.under.test: Adenosine receptor A2a (Homo sapiens)
# Sequence (P29274 whole entry): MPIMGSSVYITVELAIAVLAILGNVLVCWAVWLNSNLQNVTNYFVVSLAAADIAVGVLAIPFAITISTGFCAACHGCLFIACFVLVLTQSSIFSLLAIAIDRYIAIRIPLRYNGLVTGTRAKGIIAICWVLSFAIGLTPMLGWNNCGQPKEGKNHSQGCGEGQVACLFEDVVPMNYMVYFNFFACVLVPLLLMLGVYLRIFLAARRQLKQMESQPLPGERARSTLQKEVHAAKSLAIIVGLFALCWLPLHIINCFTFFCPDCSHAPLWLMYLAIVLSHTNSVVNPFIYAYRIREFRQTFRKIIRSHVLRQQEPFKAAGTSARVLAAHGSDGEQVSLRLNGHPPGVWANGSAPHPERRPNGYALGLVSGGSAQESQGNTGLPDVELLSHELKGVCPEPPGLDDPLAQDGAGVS
# protocol.text: Displacement of [3 H]2-[p-(2-carboxyethyl)phenyl-ethylamino]-5'-N-ethylcarboxamidoadenosine from recombinant human adenosine receptor A2A expressed in HEK293 cell membranes at 10 uM after 60 mins by liquid scintillation counting method relative to control
Quick reminder: number only, in %, skip the unit.

CCCOC(=O)[C@@]12C[C@@H]1[C@@H](n1cnc3c(NC(C4CC4)C4CC4)nc(Cl)nc31)[C@H](O)[C@@H]2O    19

Turning to the following molecule.
Which inhibition is listed for `CNC(=O)[C@@]12C[C@@H]1[C@@H](n1cnc3c(N(C)C)nc(C#Cc4ccc(Cl)s4)nc31)[C@H](O)[C@@H]2O` ?
15

====

# system.under.test: 5-hydroxytryptamine receptor 2A (Homo sapiens, UniProt P28223)
# Sequence (P28223 whole entry): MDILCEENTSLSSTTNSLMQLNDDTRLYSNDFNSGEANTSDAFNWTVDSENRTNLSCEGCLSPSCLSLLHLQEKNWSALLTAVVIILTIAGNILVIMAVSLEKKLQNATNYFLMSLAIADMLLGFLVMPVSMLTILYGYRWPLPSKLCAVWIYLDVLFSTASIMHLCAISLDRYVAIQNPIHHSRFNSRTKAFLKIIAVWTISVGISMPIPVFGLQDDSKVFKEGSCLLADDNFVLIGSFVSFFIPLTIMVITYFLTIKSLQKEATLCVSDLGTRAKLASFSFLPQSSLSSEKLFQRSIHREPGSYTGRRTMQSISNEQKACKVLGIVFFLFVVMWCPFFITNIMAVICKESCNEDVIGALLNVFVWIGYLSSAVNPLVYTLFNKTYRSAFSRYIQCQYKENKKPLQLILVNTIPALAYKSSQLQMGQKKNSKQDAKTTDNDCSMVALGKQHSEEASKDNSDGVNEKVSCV
# protocol.text: Displacement of [3H]ketanserin from human 5-HT2A receptor expressed in HEK-T cell membranes at 10 uM incubated for 90 mins under dark condition by microbeta scintillation counting method relative to control
endpoint.name: inhibition

Consider the molecule shown here: `CC(=O)NCCCNC(=O)[C@@]12C[C@@H]1[C@@H](n1cnc3c(NC(C4CC4)C4CC4)nc(Cl)nc31)[C@H](O)[C@@H]2O` What is its recorded inhibition?
< 10%

Next up: `CCC(CC)Nc1nc(Cl)nc2c1ncn2[C@H]1[C@H](O)[C@H](O)[C@]2(CO)C[C@H]12`
12%

Next molecule: `Fc1ccc(C#Cc2nc(NCc3cccc(Cl)c3)c3nc[nH]c3n2)cc1F`
< 10%
